- experiment: logP determination by HPLC on a reversed-phase column (C 18), EEC Directive 79/831 Annex V.A8
- Assay type: physicochemical
- stated conditions: value marked [b]

compound | logP
CCOC(=O)C(C)(CON=C(C)c1nc(C)ccc1C)CON=C(C)c1nc(C)ccc1C (centres unmarked) [compound 860] | 3.03[b]
CC(=NOCC(C)CON=C(C)c1cccc(C)[n+]1[O-])c1cccc(C)[n+]1[O-] (centres unmarked) | 1.69^[b]
CC(=NOCC(C)(C)CON=C(C)c1cccc(C)n1)c1ccc2c(c1)CC(C)O2 (centres unmarked) | 5.65^[b]
CC(=NOCC(C)CON=C(C)c1nccc(C)n1)c1cccc(C)n1 (centres unmarked) | 2.59^[b]
COC(CON=C(C)c1ccc(C)c(C)n1)CON=C(C)c1ccc(C)c(C)n1 (centres unmarked) | 1.95^[b]
CCCc1cccc(C(C)=NOCCCCCCON=C(C)c2cccc(C)n2)n1 | 6.79^[b]
CCC(=NOCC(C)(C)CON=C(C)c1cccc(C)n1)c1ncccc1C | 4.51^[b]
C=CCCC(=NOCCCCCCON=C(C)c1cccc(C)n1)c1ncccc1C (single isomer, unassigned) [compound 524] | 5.65^[b] (isomer B)
CC(=NOCCCCCCON=C(C)c1cccc(C)n1)c1cccc(C(F)(F)F)c1 | 6.51^[b]
CCCc1cccc(C(C)=NOCCCCON=C(C)c2cccc(C)n2)n1 | 5.48^[b]
CC(=NOCCCCON=C(C)c1nc(C)c(C)s1)c1cccc(C)n1 | 4.62^[b]
CC(=NOCCCCCCON=C(c1cccc(C)n1)C(C)C)c1cccc(C)n1 (single isomer, unassigned) [compound 526] | 4.91^b](isomer A)
CC[Si](CC)(CON=C(C)c1cc(C)cc(C)n1)CON=C(C)c1cc(C)cc(C)n1 | 5.05^[b]
CC(=NOCC(C)CON=C(C)c1ccc(C)c(C)n1)c1cc(Cl)cc(C)n1 (centres unmarked) | 6.52^[b]
CC(=NOCCCCON=C(C)c1cccc(C)n1)c1ccncc1 | 1.88^[b]
CC(=NOCC(CON=C(C)c1cccc(C)n1)C(C)(C)C)c1cccc(C)n1 (centres unmarked) | 5.51^[b]
CC(=NOCCCCON=C(c1ccccc1)c1ncccc1C)c1cccc(C)n1 | 3.89^[b]
CC(=NOCC(C)CON=C(C)c1cccc(C)n1)c1cncc(C)c1 (centres unmarked) | 2.37^[b]
CC(=NOCC(C)CON=C(C)c1cccc([Si](C)(C)C)n1)c1ccccn1 (centres unmarked) | 6.72^[b]
CC(=NOCCCCCCON=C(C)c1ccc(Cl)s1)c1cccc(C)n1 | 6.16^[b]
CC(=NOCC(C)CON=C(C)c1cccc(C)n1)c1ccncc1 (centres unmarked) | 2.04^[b]
CC(=NOCCCCCCON=C(C)c1cccc(C)n1)c1ccc(Cl)cc1 | 6.58^[b]
CC(=NOCC(C)CON=C(C)c1cccnc1C)c1cccc(C)n1 (centres unmarked) | 1.85^[b]
CC(=NOCCCCON=C(c1cccc(C)n1)C1CC1)c1cccc(C)n1 | 3.28^[b]
CC(=NOCCCCON=C(c1ccccc1)c1cccc(C)n1)c1cccc(C)n1 | 3.51^[b]
C=C(CON=C(C)c1ccccn1)CON=C(C)c1cccc(C)n1 (single isomer, unassigned) | 3.15^[b] (isomer B)
Cc1cccc(C=NOCCCCON=Cc2cccc(C)n2)n1 | 2.16^[b]
C#CCOc1ccc(C(C)=NOCC(C)CON=C(C)c2ccc(OCC#C)c(C)n2)nc1C (centres unmarked) | 5.33^[b]
CC(=NOCCCCON=C(C)c1cccc(C)n1)c1ccnc(C)c1 | 1.71^[b]
CC(=NOCCC(C)ON=C(C)c1ccc(C)c(C)n1)c1ccc(C)c(C)n1 (centres unmarked) | 2.75^[b]
C=C(CON=C(C)c1csc(C)n1)CON=C(C)c1csc(C)n1 | 3.22^[b]
C=C(CON=C(C)c1ccc(Cl)cc1)CON=C(C)c1cccc(C)n1 | 5.48^[b]
C=C(CON=C(C)c1cccc(OC)c1)CON=C(C)c1cccc(C)n1 | 4.46^[b]
CC(=NOCCCCCCON=C(C)c1ccccc1Cl)c1cccc(C)n1 | 5.84^[b]
CC(=NOCC1(CON=C(C)c2cccc(C)n2)CCC1)c1cccc(C)n1 | 4.77^[b]
